Test: chemical genetic growth profiling, strain panel (AID 1159580);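 note: tested at 20 µM; growth read once vehicle control cultures reached saturation at 30 °C; 1 = growth at the plate median or of vehicle wells; lower values mean less growth of the strain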
Conditions: S. cerevisiae deletion strains, growth OD, locus YHR094C, strain hxt1, active compounds read low
In all, about 5,500 compounds went through this assay and about 2,000 (36%) were called active. Not shown: some 18% with an inconclusive outcome. This is one part of the list.
result-type: normalized growth
Field format: numeric only.

CC(=O)OC1CCC23C(=O)OC45CCC(C6=CC(=O)OC6)C4(C)CCC2C5CCC3(O)C1 (stereo not drawn); 1
CN1Cc2c(N)cccc2C(c2ccccc2)C1 (stereo not drawn); 1.02
C[C@H]1C(=O)O[C@@H]2CCN3CC=C(COC(=O)[C@](C)(O)[C@]1(C)O)[C@H]23; 0.991
CSCCC(NC=O)C(=O)NC(CC(C)C)C(=O)NC(Cc1ccccc1)C(=O)O (stereo not drawn); 1
COc1c2c(cc3occ(-c4ccc5c(c4)OCO5)c(=O)c13)OC(C)(C)C=C2; 0.977
Nc1ncnc2nc[nH]c12; 0.999
O=c1[nH]cnc2nc[nH]c12; 0.974

Please examine the following record next.
Consider CC1=C(C(=O)O)N2C(=O)[C@@H](NC(=O)[C@H](N)C3=CCC=CC3)C2SC1 (stereo partly drawn) . Its measured normalized growth is 0.983

###

Experiment: chemical genetic growth profiling, strain panel (AID 1159580);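 note: tested at 20 µM; growth read once vehicle control cultures reached saturation at 30 °C; 1 = growth at the plate median or of vehicle wells; lower values mean less growth of the strain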
Conditions: S. cerevisiae deletion strains, growth OD, locus YHR129C, strain ARP1, active compounds read low
Among all 5,500 compounds or so, about 2,000 (36%) were called active. Another 18% or so got no clear call; they are omitted. The list shows a part of the results.
result-type: normalized growth
Field format: numeric only.

Example entries and their recorded answers appear below.
Fc1ccc(C(c2ccc(F)cc2)N2CCN(C/C=C/c3ccccc3)CC2)cc1; 0.992
CC(C(=O)O)c1ccc(N2Cc3ccccc3C2=O)cc1 (stereo not drawn); 1.02

Please examine the following record next.
Consider C[C@H]1C(=O)O[C@@H]2CCN3CC=C(COC(=O)[C@](C)(O)[C@]1(C)O)[C@H]23 . Its measured normalized growth is 0.989

###

Experiment: chemical genetic growth profiling, strain panel (AID 1159580);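 note: tested at 20 µM; growth read once vehicle control cultures reached saturation at 30 °C; 1 = growth at the plate median or of vehicle wells; lower values mean less growth of the strain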
Conditions: S. cerevisiae deletion strains, growth OD, locus YIR030C, strain dcg1, active compounds read low
About 2,000 (36%) of roughly 5,500 compounds were called active. About 18% were inconclusive and are not listed. This is one part of the list.
result-type: normalized growth
Field format: numeric only.

Example entries and their recorded answers appear below.
O=c1[nH]c2ccccc2n1C1CCN(CCCC(c2ccc(F)cc2)c2ccc(F)cc2)CC1; 1
O=C(CCCN1CC=C(n2c(=O)[nH]c3ccccc32)CC1)c1ccc(F)cc1; 0.972
Cc1ncc([N+](=O)[O-])n1CCO; 0.983
O=c1[nH]cnc2nc[nH]c12; 0.989

Consider CCN(CC)CCNC(=O)COc1ccc(OC)cc1 . Its measured normalized growth is 0.999

Consider COc1cc(O)c(C)c(O)c1 . Its measured normalized growth is 1.01

Consider Fc1ccc(C(c2ccc(F)cc2)N2CCN(C/C=C/c3ccccc3)CC2)cc1 . Its measured normalized growth is 0.98

Consider C[C@]12C=CC(=O)C=C1CCC1C2C(=O)C[C@@]2(C)C1CC[C@]2(O)C(=O)CO (stereo partly drawn) . Its measured normalized growth is 0.987

###

Test: chemical genetic growth profiling, strain panel (AID 1159580);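 note: tested at 20 µM; growth read once vehicle control cultures reached saturation at 30 °C; 1 = growth at the plate median or of vehicle wells; lower values mean less growth of the strain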
Conditions: S. cerevisiae deletion strains, growth OD, locus YNL183C, strain NPR1, active compounds read low
Hit rate of the full screen: of about 5,500 compounds, about 2,000 (36%) were called active. Not shown: some 18% with an inconclusive outcome. Some of the results follow.
result-type: normalized growth
Field format: numeric only.

Example entries and their recorded answers appear below.
CN1CCN(C(c2ccccc2)c2ccccc2)CC1; 0.937
CC(C)(O)CC[C@@H](O)[C@](C)(O)C1CC[C@@]2(O)C3=CC(=O)C4C[C@@H](O)[C@@H](O)C[C@]4(C)C3CC[C@]12C (some centres not stated); 0.973
O=C(Nc1ccc(Cl)cc1)c1csc([N+](=O)[O-])c1; 0.829

Consider N/C(=N/OC(=O)c1ccccc1Cl)c1cccc(CS(=O)(=O)c2ccc(Cl)cc2)c1 . Its measured normalized growth is 1.04

Consider C=C(C)c1cc2cc(C(C)=O)c(O)cc2o1 . Its measured normalized growth is 0.889

Consider Cc1ncc([N+](=O)[O-])n1CCO . Its measured normalized growth is 1.03

Consider COc1cc(OC)c(-c2c(OC)cc(OC)cc2OC)c(OC)c1 . Its measured normalized growth is 0.948

Consider CC(C(=O)O)c1ccc(N2Cc3ccccc3C2=O)cc1 (configuration not stated) . Its measured normalized growth is 0.941

From: PubChem BioAssay AID1159580
